System: RXF 393 renal
Test: NCI-60 one-dose screen, 48 h (100 = growth as untreated, 0 = no growth, -100 = all killed)
Settings: 10 µM unless noted
The panel holds about 83,000 compounds, 20% with a hit somewhere; the sample as a whole holds those more often.
Overview of reported growth across a group of compounds:
Numbers only; they are read as %.

Field: example entries. Status: answers known.
**Query** Would you kindly share the measured growth for CCN(CC)Cc1cc(Nc2nc(NC3CCC(N(C)C)CC3)c3ccccc3n2)ccc1OC (stereo not given) ?
**Result** 74.9

**Query** Would you kindly share the measured growth for O=C(O)/C=C(\c1nc2ccc([N+](=O)[O-])cc2[nH]1)c1cc(Cl)ccc1O ?
**Result** 39.1

**Query** Would you kindly share the measured growth for CCCCCCCCCCCCCCCCOc1ccc(S(=O)(=O)N(C)C)cc1[N+](=O)[O-] ?
**Result** 61.7

**Query** Would you kindly share the measured growth for CCCCCCCCNC(C)C(O)c1ccc(SC(C)C)cc1 (stereo not given) ?
**Result** 37.5

**Query** Would you kindly share the measured growth for COc1cc(/C=C/C(=O)c2c(C)nc3ccccc3c2C)ccc1OCCCOc1cc2c(cc1OC)C(=O)N1CCC[C@H]1C=N2 ?
**Result** -83.7

Further cases:
**Query** Would you kindly share the measured growth for CCc1ccc2c(c1)N(CCO)C1=C(C(=O)OC1)C2c1cccc(Br)c1 (stereo not given) ?
**Result** 10.9

**Query** Would you kindly share the measured growth for CC(OC(=O)Nc1cccc(Cl)c1)C(=O)O (stereo not given) ?
**Result** 98.4

**Query** Would you kindly share the measured growth for N[C@@H](CO)C(=O)O ?
**Result** 108

**Query** Would you kindly share the measured growth for O=C(Nc1ccccc1)C(CCCCN1C(=O)c2ccccc2C1=O)N1C(=O)c2ccccc2C1=O (stereo not given) ?
**Result** 110

**Query** Would you kindly share the measured growth for COC(=O)C(C)NC1=C(Cl)C(=O)C(NC(C)C(=O)OC)=C(Cl)C1=O (stereo not given) ?
**Result** 101

* * *

System: PC-3 prostate
Assay: NCI-60 one-dose screen, 48 h
Conditions: 10 µM unless noted
The panel holds about 83,000 compounds, 20% with a hit somewhere; the sample as a whole holds those more often. Calls of active or inactive are those of the source. The calls were made as follows: active = growth percent below 10; inactive = the rest.
Please state which outcome applies, choosing from active, inactive

Some solved cases for reference:
**Query** What was the test verdict on C=C(C)[C@@H]1CC[C@]2(C)[C@H](CC=C3[C@@H]4C[C@](C)(C(=O)N5CCN(C)CC5)CC[C@]4(C)CC[C@]32C)[C@@]1(C)CCC#N ?
**Result** inactive

**Query** What was the test verdict on CCNS(=O)(=O)c1ccc(C)cc1 ?
**Result** inactive

**Query** What was the test verdict on N[C@@H](CO)C(=O)O ?
**Result** inactive

**Query** What was the test verdict on CCCc1n(Cc2ccc3ccccc3n2)cc[n+]1Cc1ccc2ccccc2c1 ?
**Result** active

**Query** What was the test verdict on O=C(/C=C/c1ccccc1)n1c(-c2ccccc2)nc2ccccc21 ?
**Result** inactive

Further cases:
**Query** What was the test verdict on CCCCn1c(C)nc2ccc(Nc3nc(Cl)nc4nc[nH]c34)cc21 ?
**Result** inactive

**Query** What was the test verdict on O=C(NO)c1ccc(NCc2csc3ccccc23)cc1 ?
**Result** inactive

**Query** What was the test verdict on CC(C)NC(=O)OCC#CCOC(=O)NC(C)C ?
**Result** inactive

**Query** What was the test verdict on Oc1c(C(c2ccc(F)cc2)N2CCCCC2)ccc2cncnc12 (configuration not stated) ?
**Result** inactive

**Query** What was the test verdict on CCN1CCN(Cc2ccc(NC(=O)c3nc4ccc5[nH]ncc5c4c4c3CCCC4)cc2C(F)(F)F)CC1 ?
**Result** inactive

**Query** What was the test verdict on CCOC(=O)c1ccc(NC(=O)NC2=NCCS2)cc1 ?
**Result** inactive

**Query** What was the test verdict on COc1cc(C2CC(c3cccc(Nc4ccnc5cc(Cl)ccc45)c3)=NN2c2ccccc2)cc(OC)c1OC (configuration not stated) ?
**Result** inactive

* * *

System: NCI-H226 lung
Experiment: NCI-60 one-dose screen, 48 h
Settings: 10 µM unless noted
Compounds without any hit were thinned out: in the full panel of roughly 83,000, 20% have a hit. The source made the active and inactive calls. The calls were made as follows: active = growth percent below 10; inactive = the rest.
Please state which outcome applies, choosing from active, inactive

Some solved cases for reference:
**Query** What was the test verdict on C/C(=N\OC(=O)Nc1cccc(Cl)c1)c1ccccc1 ?
**Result** inactive

**Query** What was the test verdict on C=CCn1c(SCC(=O)Nc2ccc(/C(C)=N\O)cc2)nnc1-c1cc(-c2ccc(Cl)cc2)nc2ccccc12 ?
**Result** inactive

**Query** What was the test verdict on COc1ccc(C2=Nn3c(nnc3-c3ccc(Cl)cc3N)SC2)cc1 ?
**Result** inactive

**Query** What was the test verdict on CCc1ccc2c(c1)N(CCO)C1=C(C(=O)OC1)C2c1cccc(Br)c1 (stereo not given) ?
**Result** inactive

Turning to the following molecule.
**Query** What was the test verdict on CN(C)c1ccc(N2Cc3ccccc3OC3=C2C(=O)c2c(O)ccc(O)c2C3=O)cn1 ?
**Result** active

* * *

System: LOX IMVI melanoma
Experiment: NCI-60 one-dose screen, 48 h
Conditions: 10 µM unless noted
This is part of a sample that, as a whole, favours compounds with a hit. Of some 83,000 tested, about 20% had one in any assay. The source made the active and inactive calls. How the source made its calls: active means growth percent below 10; inactive means the rest.
Please state which outcome applies, choosing from y = active, n = inactive

Some solved cases for reference:
**Query** What was the test verdict on Cc1ccc(Nc2nc(NCCO)c3ccccc3n2)cc1C ?
**Result** y

**Query** What was the test verdict on CCCCCNCCCCCNc1cc(OC)cc2cccnc12 ?
**Result** n

**Query** What was the test verdict on C=C(C)[C@@H]1CC[C@]2(C)[C@H](CC=C3[C@@H]4C[C@](C)(C(=O)N5CCN(C)CC5)CC[C@]4(C)CC[C@]32C)[C@@]1(C)CCC#N ?
**Result** n

Further cases:
**Query** What was the test verdict on COc1ccc(C2=CC(c3ccc(OC)cc3Br)N3C=CSC3=N2)cc1 (stereo unspecified) ?
**Result** n

**Query** What was the test verdict on O=C1/C(=C\c2cccn2Cc2ccc(F)cc2)c2ccccc2N1c1c(Cl)cccc1Cl ?
**Result** n

**Query** What was the test verdict on O=Cc1ccc2nc(C(Cl)(Cl)Cl)ccc2c1 ?
**Result** n

**Query** What was the test verdict on Cc1nc2ccc(Nc3nc(Cl)nc(N4CCOCC4)n3)cc2n1Cc1ccccc1 ?
**Result** n

**Query** What was the test verdict on COc1cc(OC)cc(-c2n/c(=C\c3c(O)[nH]c4ccc(Cl)cc34)cc3c2=Nc2ccccc2-3)c1 ?
**Result** n

**Query** What was the test verdict on COc1cc2nccc(Oc3ccc(NC(=O)C4(C(=O)Nc5ccc(F)cc5)CC4)cc3)c2cc1Oc1ccc(N)cn1 ?
**Result** n

* * *

Test system: ACHN renal
Assay: NCI-60 one-dose screen, 48 h
Settings: 10 µM unless noted
Compounds without any hit were thinned out: in the full panel of roughly 83,000, 20% have a hit. Active and inactive are the calls of the source. How the source made its calls: active means growth percent below 10; inactive means the rest.
Please state which outcome applies, choosing from label 1 for active, label 0 for inactive

Some solved cases for reference:
**Query** What was the test verdict on Fc1cnccc1-c1nc2ccc3[nH]ncc3c2c2c1CCCC2 ?
**Result** label 1

**Query** What was the test verdict on COc1cccc(OCC(O)CN2CCN(c3ccccc3)CC2)c1 (stereo not given) ?
**Result** label 0

**Query** What was the test verdict on Cn1nc(C(F)(F)F)cc1-c1cc(Cl)c(OCc2ccc(Cl)cc2)c(-c2ccc(Cl)c(C(F)(F)F)c2)c1O ?
**Result** label 1

Further cases:
**Query** What was the test verdict on CC1=C(C(=O)Nc2ccc(F)cc2)C(c2ccc(Cl)cc2)C2=C(CC(C)(C)CC2=O)N1 (stereo not given) ?
**Result** label 0

**Query** What was the test verdict on Cc1cc(C)c2c(n1)sc1c(Nc3ccc(Cl)cc3Cl)ncnc12 ?
**Result** label 0

* * *

Overview of reported growth across a group of compounds:
Tested on: SK-MEL-5 melanoma
Test: NCI-60 one-dose screen, 48 h (100 = growth as untreated, 0 = no growth, -100 = all killed)
Details: 10 µM unless noted
This is part of a sample that, as a whole, favours compounds with a hit. Of some 83,000 tested, about 20% had one in any assay.
Numbers only; they are read as %.

Field: example entries. Status: answers known.
**Query** Would you kindly share the measured growth for NC(=O)c1noc(C(=O)c2ccccc2)c1N ?
**Result** 97.9

**Query** Would you kindly share the measured growth for COc1cccc2nc(Nc3cccc(NC(=O)c4ccc(N5CCN(C)CC5)c(C(F)(F)F)c4)c3)ccc12 ?
**Result** 48.8

**Query** Would you kindly share the measured growth for Cc1cc(Cl)c2ccc(N(C)C)cc2n1 ?
**Result** 102

**Query** Would you kindly share the measured growth for Nc1cc2nc3ccccc3oc-2cc1=O ?
**Result** -97.9

Further cases:
**Query** Would you kindly share the measured growth for Cc1ccc(S(=O)(=O)NC(CCC(=O)Nc2ccc(Cl)cc2)C(=O)Nc2ccc(Cl)cc2)cc1 (stereo unspecified) ?
**Result** 21.2

**Query** Would you kindly share the measured growth for N#Cc1c(N)c(C(=O)c2ccc3c(c2)OCCO3)n2c1CCCC2 ?
**Result** 22.8

**Query** Would you kindly share the measured growth for COc1cc(C2CC(c3cccc(Nc4ccnc5cc(Cl)ccc45)c3)=NN2c2ccc(Cl)cc2)cc(OC)c1OC (stereo unspecified) ?
**Result** 34.2

**Query** Would you kindly share the measured growth for C1=C\CCCCN2CC[C@H]3[C@H](CCCC/C=C\CCCN4C[C@@H](CCCCC/1)C[C@@H]3C4)C2 ?
**Result** 71

**Query** Would you kindly share the measured growth for CC(CN1CCN(C)CC1)CN1c2ccccc2Sc2ccc(C(F)(F)F)cc21 (stereo unspecified) ?
**Result** -82.7

**Query** Would you kindly share the measured growth for CC(COC(=O)c1ccccc1)N1CC2CCC(C1)O2 (stereo unspecified) ?
**Result** 101

**Query** Would you kindly share the measured growth for COCCn1c(Nc2ccc(C(=O)NO)cc2)nc2ccccc21 ?
**Result** 47.4

Value source: PubChem BioAssay (NCI)
